assay system: recombinant XPNPEP1 (Homo sapiens)
Sequence (Q9NQW7 whole entry): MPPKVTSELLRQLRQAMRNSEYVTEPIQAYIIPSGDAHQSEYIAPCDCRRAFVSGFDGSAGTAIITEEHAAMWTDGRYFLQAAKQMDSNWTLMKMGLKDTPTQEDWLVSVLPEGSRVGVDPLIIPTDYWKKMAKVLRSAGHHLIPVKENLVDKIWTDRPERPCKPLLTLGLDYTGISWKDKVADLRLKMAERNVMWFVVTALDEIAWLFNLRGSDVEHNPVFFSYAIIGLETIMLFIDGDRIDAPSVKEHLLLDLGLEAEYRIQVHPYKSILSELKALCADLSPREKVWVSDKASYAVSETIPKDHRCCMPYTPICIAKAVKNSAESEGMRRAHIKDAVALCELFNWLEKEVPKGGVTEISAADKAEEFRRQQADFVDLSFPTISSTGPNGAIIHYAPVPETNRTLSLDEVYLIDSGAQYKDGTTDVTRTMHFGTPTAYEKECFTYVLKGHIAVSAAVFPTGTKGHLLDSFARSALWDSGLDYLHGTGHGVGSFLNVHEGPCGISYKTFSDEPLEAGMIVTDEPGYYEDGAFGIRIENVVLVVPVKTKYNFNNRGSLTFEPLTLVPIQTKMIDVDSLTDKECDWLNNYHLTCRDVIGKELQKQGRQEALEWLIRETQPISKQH
experiment notes: Inhibition of recombinant XPNPEP1, H-Lys
Format: biochemical
assay setup: read-out: XPNPEP1 IC50 (μM ± SEM); recombinant XPNPEP1, H-Lys(abz)-Pro-Pro-pNA cleavage; means ± SEM of three biological replicates
value type: IC50 (µM)

compound: C[C@H](NC(=O)[C@@H]1CCCN1C(=O)[C@@H]1CCCN1C(=O)[C@@H](O)[C@H](N)Cc1ccccc1)C(N)=O [apstatin, reference compound]
assay system: recombinant XPNPEP1 (Homo sapiens)
unit symbol: µM
value measured: 18

---

Tested on: MV4;11 WT cells
experiment notes: CellTiter-Glo cell viability, WT MV4
Assay type: cell-based, human
assay setup: CTG, 24 h
value type: Cytotoxicity / activity against MV4;11 cells (in words)

smiles string: CC(C)C[C@@H](N)[C@H](O)C(=O)N1CCC[C@H]1C(=O)OC(C)(C)C
value measured: slightly more toxic

smiles string: CC(C)C[C@@H](N)[C@H](O)C(=O)N1CCC[C@H]1C(=O)OC1CCCC1
value measured: slightly more toxic

Hey, just so you know, these numbers are from paper PMC10149104.
